Data credit: PubChem BioAssay AID328

Test system: BDF1 mice, P388 leukemia ip, median survival T/C
Assay Remarks: NCI In Vivo Anticancer Drug Screen. Data for tumor model P388 Leukemia (intraperitoneal) in B6D2F1 (BDF1) mice
Condition Set: endpoint: median survival time; dose: 400.0 mg/kg/injection; schedule: Q01DX009 (ip); vehicle: saline with Tween-80; higher = longer survival
Inconclusive results and toxic doses are left out.
Attribute Measured: T/C

Reference set (3 entries):
O=C(NC(=S)N1CC=CCC1)c1ccccc1; 101 % of control
CC(=O)C1CCC2C3CCC4=CC(=O)CC4(C)C3CCC12C (configuration not stated); 86 % of control
CC(=O)Nc1c(Cl)cc2c(c1Cl)Cc1cc([N+](=O)[O-])ccc1-2; 100 % of control

Entry `COc1ccc(Cc2cc3cc(OC)c(OC)cc3cn2)cc1OC` — recorded T/C = 103 % of control

Entry `Cc1c(NC(=O)Nc2cccc(F)c2)c(=O)n(-c2ccccc2)n1C` — recorded T/C = 90 % of control
